tested on: MDA-MB-468; assay: Cell viability, MDA-MB-468 breast cancer cells; format: cell-based; conditions: Homo sapiens; MDA-MB-468 (Triple negative), treated for 24 h
// pIC50 lookup, one value per entry
The meaning of pIC50 here: minus log10 of the concentration in molar units.

-- ask Query pIC50 for COc1cc(/C=C/C(=O)/C=C(O)/C=C/c2ccc(O)c(OC)c2)ccc1O
-- reply 4.37

-- ask Query pIC50 for COc1cc(/C=C/C(=O)/C=C(O)/C=C/c2ccc(OC(=O)C(C)(CO)CO)c(OC)c2)ccc1OC(=O)C(C)(CO)CO [Compound 21a]
-- reply 5.21

----------
system: PC3 prostate cancer cell; assay: MTT cell viability assay, PC3 prostate cancer cell; format: cell-based; details: PC-3, treated 48 hours; read-out: IC50 48 hours
// pIC50 lookup, one value per entry
The meaning of pIC50 here: minus log10 of the concentration in molar units.

compound | target | test.value
COc1cc(/C=C/C(=O)/C=C(O)/C=C/c2cc(OC)c(OC(=O)C(C)(CO)CO)c(OC)c2)cc(OC)c1OC(=O)C(C)(CO)CO | PC3 prostate cancer cell | 5.11

Now let's try a different one.
-- ask Provide PC3 prostate cancer cell pIC50 reading for COc1ccc(/C=C/C(=O)C(COC(=O)C(C)(CO)CO)(COC(=O)C(C)(CO)CO)C(=O)/C=C/c2ccc(OC)c(OC)c2)cc1OC .
-- reply 4.28
